Where these numbers come from: the supplement of paper PMC10338343

- Tested on: MILI (PIWIL2) piRISC loaded with L1MC piRNA (26 nt);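 also: 1 nM active piRISC with 0.1 nM target library at 33 °C single turnover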
- Test: pre-steady-state target cleavage rate (min^-1); guide: L1MC piRNA 5'p-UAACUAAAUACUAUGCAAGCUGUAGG; MIWI and MILI are mouse PIWI proteins and EfPiwi is from a freshwater sponge; tags in brackets are library labels; higher = faster piRNA-guided slicing of the target
- Particulars: auxiliary factor: none (no GTSF1)
Reported metric: pre-steady-state target cleavage rate

> print(dat)
                              residue.string                             tested.system  sign.qualifier  assay.value
 1           UCCUGGUACAGCUUGCAUAGUAUUUUAGUUA  MILI (PIWIL2) piRISC loaded with L1MC piRNA (26 nt)               =       0.0144
 2            UCCUGCUACAGCUACGAUAGUAUUUAGUUA  MILI (PIWIL2) piRISC loaded with L1MC piRNA (26 nt)               =      0.00263
 3            UCCUGGAUCAGCUUGCAUUGUAAUUAGUUA  MILI (PIWIL2) piRISC loaded with L1MC piRNA (26 nt)               =      0.00466
 4            UCCUGGUAGUGCUUGCAUAGUAUUUAGUUA  MILI (PIWIL2) piRISC loaded with L1MC piRNA (26 nt)               =      0.00947
 5            UCCUGGAAGAGCUUGGAUAGUAUUUAGUUA  MILI (PIWIL2) piRISC loaded with L1MC piRNA (26 nt)               =      0.00531
 6            UCCUGGAUGUGCUUGCUUAGUUUUUAGUUA  MILI (PIWIL2) piRISC loaded with L1MC piRNA (26 nt)               =      0.00656
 7            UCCUGGAUGUCCUUGCAUAUUAUUUAGUUA  MILI (PIWIL2) piRISC loaded with L1MC piRNA (26 nt)               =       0.0028
 8            UCCUGGAUGACCUUGCAUACUAUUUAGUUA  MILI (PIWIL2) piRISC loaded with L1MC piRNA (26 nt)               =      0.00358
 9            UCCUGGAUGUCGAACCAUAGUAUUUAGGUA  MILI (PIWIL2) piRISC loaded with L1MC piRNA (26 nt)               <       0.0001
10           UCCUGGAUCAGCUUUGCAUAGUAUUUAGUUA  MILI (PIWIL2) piRISC loaded with L1MC piRNA (26 nt)               =       0.0075
11            UCCUGGAACAGCUUGCAUAGUCUUUAGUUA  MILI (PIWIL2) piRISC loaded with L1MC piRNA (26 nt)               =      0.00483
12           UCCUGGAUGUGCUUGCAUAGUUAUUUAGUUA  MILI (PIWIL2) piRISC loaded with L1MC piRNA (26 nt)               =      0.00419
13            UCCUGCUACUCGUUGCAUAGUAUUUAGUAA  MILI (PIWIL2) piRISC loaded with L1MC piRNA (26 nt)               =      0.00373
14            UCCUGGAUGUGCUUGCAUUGUAAUUAGUUA  MILI (PIWIL2) piRISC loaded with L1MC piRNA (26 nt)               =      0.00338
15           UCCUGGAUGUCCUUGCAUAGUAUUUAGUUUA  MILI (PIWIL2) piRISC loaded with L1MC piRNA (26 nt)               =      0.00891
16            UCCUCCUACUGCUUGCAUAGUAUUAAGUUA  MILI (PIWIL2) piRISC loaded with L1MC piRNA (26 nt)               =      0.00292
17             UCCUGGAACAGCUUCAUAGUAUUUAGUUA  MILI (PIWIL2) piRISC loaded with L1MC piRNA (26 nt)               =      0.00361
18           UCCUGGAUGUGCUUGCAUAGUAUUCUAGUUA  MILI (PIWIL2) piRISC loaded with L1MC piRNA (26 nt)               =      0.00428
19  UCCUGGAUGUCGAAGCAUAGUAUUUAGUUU [g2:g16:cont:t1U]  MILI (PIWIL2) piRISC loaded with L1MC piRNA (26 nt)               =      0.00447
20           UCCUGGUACCAGCUUGCAUAGUAUUUAGUUA  MILI (PIWIL2) piRISC loaded with L1MC piRNA (26 nt)               =      0.00866
21            UCCUGGAUGUCGUUGCAUAGUAUUUGGUUA  MILI (PIWIL2) piRISC loaded with L1MC piRNA (26 nt)               =      0.00722
22            UCCUGGAACAGCUUCCUUAGUAUUUAGUUA  MILI (PIWIL2) piRISC loaded with L1MC piRNA (26 nt)               =      0.00562
23            UCCUGGUACAGCUUCGUUAGUAUUUAGUUA  MILI (PIWIL2) piRISC loaded with L1MC piRNA (26 nt)               =      0.00406
24           UCCUGGAACAGCUUGCAUAGUAUUUGAGUUA  MILI (PIWIL2) piRISC loaded with L1MC piRNA (26 nt)               =      0.00299
25           UCCUCCUACGAGCUUGCAUAGUAUUUAGUUA  MILI (PIWIL2) piRISC loaded with L1MC piRNA (26 nt)               =      0.00585
26            UCCUGGAUCAGCAUGGAUAGUAUUUAGUUA  MILI (PIWIL2) piRISC loaded with L1MC piRNA (26 nt)               =       0.0106
27  UCCUGGAUGUCGUUGCAUAGUAUUUAGUUU [g2:g18:cont:t1U]  MILI (PIWIL2) piRISC loaded with L1MC piRNA (26 nt)               =       0.0134
